meta.source: patent US9441012B2

# System: ACHN
# Assay comment: NCI 60 human tumor cell line screen (SRB)
# Format: cell-based
# Test parameters: ACHN (Renal Cancer); 48 h
Measured Log10GI50 of individual entries
Property measured: Log10GI50

{"columns": ["Compound", "Reading"],
 "data": [
  ["C[C@]1(C(=O)[C@H](Cc2ccccc2)NC(=O)[C@H](Cc2ccccc2)NC(=O)[C@H](COC(F)F)NC(=O)CN2CCOCC2)CO1 [Example 29]", "−6.59"],
  ["C[C@]1(C(=O)[C@H](Cc2ccccc2)NC(=O)[C@H](COC(F)F)NC(=O)[C@H](COC(F)F)NC(=O)CN2CCOCC2)CO1 [Example 26]", "−7.01"],
  ["Cc1ncc(C(=O)N[C@@H](COC(F)F)C(=O)N[C@@H](COC(F)F)C(=O)N[C@@H](Cc2ccccc2)C(=O)[C@@]2(C)CO2)s1 [Example 1]", "−6.53"],
  ["CC(C)C[C@H](NC(=O)[C@H](Cc1ccccc1)NC(=O)[C@H](COC(F)F)NC(=O)CN1CCOCC1)C(=O)[C@@]1(C)CO1 [Example 25]", "−7.01"]
]}
